Test system: adrenergic α1 receptor
measurementDescription: Binding assay α1 (non-selective), [3H]prazosin, rat cerebral cortex
conditionsUsed: percent inhibition of control specific binding; compounds tested at 1×10^−6 M
Experimental: The specific ligand binding to the receptors is defined as the difference between the total binding and the nonspecific binding determined in the presence of an excess of so unlabelled ligand. The specific Ligand binding to the receptor is defined as the difference between total and non-specific binding determined in the presence of an excess of unlabelled ligand. The compounds were tested at a concentration of 1×10^−6 M, and scintillation counting was the method of detection of ligand binding.
assayMetric: α1 [%] (%)
Number in %, nothing else.

Guide cases for α1 [%], answers given:
structureAsSmiles	measurement
O=S(=O)(NCCCN1CCN(c2nsc3ccccc23)CC1)c1cccc(C(F)(F)F)c1	97
O=S(=O)(NCCCCN1CCC(c2noc3cc(F)ccc23)CC1)c1cc2ccc(Cl)cc2s1	100
O=S(=O)(NCCCCN1CCN(c2nsc3ccccc23)CC1)c1ccc(Br)cc1	96
Cc1[nH]c2ccc(Cl)cc2c1C1=CCN(CCCCNS(=O)(=O)c2cccc3ccccc23)CC1	8
Cc1[nH]c2ccc(Cl)cc2c1C1=CCN(CCNS(=O)(=O)c2ccc(F)cc2)CC1	12
O=S(=O)(NCCCCN1CCN(c2cccc3[nH]ccc23)CC1)c1ccc(C(F)(F)F)cc1	93
O=S(=O)(NCCCCN1CCN(c2cccc3c2OCCO3)CC1)c1cccc(F)c1	91
Cc1[nH]c2ccc(Cl)cc2c1C1=CCN(CCCNS(=O)(=O)c2cccc(O)c2)CC1	50
O=S(=O)(NCCCCN1CCC(c2noc3cc(F)ccc23)CC1)c1ccc2c(c1)OCCO2	98
O=S(=O)(NCCCCN1CCN(c2cccc3[nH]ccc23)CC1)c1ccc2ccccc2c1	98

### Prompt Report α1 [%] for "O=S(=O)(NCCCCN1CCC(c2noc3cc(F)ccc23)CC1)c1ccc(-c2ccccc2)cc1" please.
### Response 100

### Prompt Report α1 [%] for "O=S(=O)(NCCCN1CCC(c2noc3cc(F)ccc23)CC1)c1ccc(-c2ccccc2)cc1" please.
### Response 99

----------
testedSystem: serotoninergic 5-HT6 receptor (Homo sapiens)
Sequence (P50406 whole entry): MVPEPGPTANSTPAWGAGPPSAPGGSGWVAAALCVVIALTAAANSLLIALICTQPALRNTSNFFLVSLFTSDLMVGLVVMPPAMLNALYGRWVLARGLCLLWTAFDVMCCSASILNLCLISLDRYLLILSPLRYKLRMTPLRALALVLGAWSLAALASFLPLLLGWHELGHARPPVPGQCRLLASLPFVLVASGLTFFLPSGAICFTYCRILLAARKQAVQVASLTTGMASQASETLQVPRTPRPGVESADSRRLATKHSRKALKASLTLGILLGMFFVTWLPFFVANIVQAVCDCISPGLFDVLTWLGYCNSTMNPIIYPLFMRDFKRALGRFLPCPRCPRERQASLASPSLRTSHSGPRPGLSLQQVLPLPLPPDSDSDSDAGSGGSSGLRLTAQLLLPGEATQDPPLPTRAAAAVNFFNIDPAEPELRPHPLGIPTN
measurementDescription: Binding assay 5-HT6 (h), [3H]LSD, CHO cells
Set-up: expressed in transfected cells; host or cells: CHO cells
conditionsUsed: read-out: 5-HT6
Output Y for inhibition at 1 µM not less than 50%; output N otherwise.

structureAsSmiles	class
Cc1c(S(=O)(=O)NCCCCN2CCN(c3nsc4ccccc34)CC2)sc2ccc(F)cc12	Y
Cc1cccc(S(=O)(=O)NCCCN2CCN(c3cccc4c3OCCO4)CC2)c1	N
O=S(=O)(NCCCCN1CCN(c2noc3ccccc23)CC1)c1cccc(F)c1	Y
O=S(=O)(NCCCN1CCC(c2noc3cc(F)ccc23)CC1)c1cc2ccc(Cl)cc2s1	Y
O=S(=O)(NCCCCN1CCC(c2noc3cc(F)ccc23)CC1)c1cc2ccc(Cl)cc2s1	Y

### Prompt Kindly determine if inhibition at 1 µM recorded for "O=S(=O)(NCCN1CCC(c2noc3cc(F)ccc23)CC1)c1cccc2ccccc12" is above or exactly 50%.
### Response Y

### Prompt Kindly determine if inhibition at 1 µM recorded for "O=S(=O)(NCCCCN1CCN(c2nsc3ccccc23)CC1)c1ccc(C(F)(F)F)cc1" is above or exactly 50%.
### Response Y

### Prompt Kindly determine if inhibition at 1 µM recorded for "O=S(=O)(NCCCCN1CCN(c2cccc3[nH]ccc23)CC1)c1ccccc1" is above or exactly 50%.
### Response N

Ref: patent US8822517B2
